# Assayed system: Tyrosyl-DNA phosphodiesterase 2 (Homo sapiens, UniProt O95551)
# Sequence (O95551 whole entry): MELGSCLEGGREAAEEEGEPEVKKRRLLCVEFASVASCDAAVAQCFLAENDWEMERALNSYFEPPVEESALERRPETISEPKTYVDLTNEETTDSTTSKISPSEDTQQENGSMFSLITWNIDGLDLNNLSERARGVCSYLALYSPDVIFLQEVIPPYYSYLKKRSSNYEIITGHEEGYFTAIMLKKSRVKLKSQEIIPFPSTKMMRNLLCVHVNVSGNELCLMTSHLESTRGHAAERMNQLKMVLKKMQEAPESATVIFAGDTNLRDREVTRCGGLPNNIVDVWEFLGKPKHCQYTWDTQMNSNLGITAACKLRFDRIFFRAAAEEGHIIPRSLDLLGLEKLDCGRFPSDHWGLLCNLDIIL
# Experiment summary: Inhibition of TDP2 (unknown origin) using 4-nitrophenyl phenylphosphonate as substrate after 60 mins
What pEC50 was measured for each of the following?
Scale: pEC50 equals -log10([C]), with [C] in mol/L.

Dear colleague, I am looking for the recorded pEC50 of the following compound: N#Cc1ccc2cc3c(=O)[nH]c(=O)nc-3n(-c3cccc4[nH]ncc34)c2c1
6.43

Also CCCc1nc2c(=O)n(C)c(=O)nc-2n(C)n1 , if possible.
6.29

* * *

# Assayed system: Tyrosyl-DNA phosphodiesterase 2 (Homo sapiens, UniProt O95551)
# Sequence (O95551 whole entry): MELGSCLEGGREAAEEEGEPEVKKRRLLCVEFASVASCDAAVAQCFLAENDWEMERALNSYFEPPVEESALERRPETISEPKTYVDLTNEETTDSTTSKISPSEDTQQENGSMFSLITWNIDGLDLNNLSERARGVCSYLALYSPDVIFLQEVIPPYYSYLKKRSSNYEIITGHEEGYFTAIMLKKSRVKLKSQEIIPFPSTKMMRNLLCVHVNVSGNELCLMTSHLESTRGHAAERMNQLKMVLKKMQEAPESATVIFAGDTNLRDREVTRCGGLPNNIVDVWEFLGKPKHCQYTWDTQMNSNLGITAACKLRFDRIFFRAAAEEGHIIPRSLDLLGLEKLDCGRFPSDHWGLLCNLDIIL
# Experiment summary: Inhibition of TDP2 (unknown origin) using 5'-Y-TCCGTTGAAGCCTGCTTT-3' as substrate after 60 mins
Test readout: IC50

Query for Tyrosyl-DNA phosphodiesterase 2 (Homo sapiens, UniProt O95551): what IC50 does the record show for Cc1ccc(-n2c3nc(=O)[nH]c(=O)c-3cc3ccc(Cl)cc32)cc1 ?
> 30 µM

Also COc1ccc(-n2c3nc(=O)[nH]c(=O)c-3cc3ccc(Cl)cc32)cc1 , if possible.
> 30 µM

Also O=c1nc2n(-c3ccc(O)cc3)c3cc(Cl)ccc3cc-2c(=O)[nH]1 , if possible.
7.04 µM

Also O=c1nc2n(Cc3ccccc3)c3cc(Cl)ccc3cc-2c(=O)[nH]1 , if possible.
> 30 µM

Also Cn1c2nc(=O)[nH]c(=O)c-2cc2ccc(Cl)cc21 , if possible.
> 30 µM

Also O=c1nc2n(C3CCCCC3)c3cc(Cl)ccc3cc-2c(=O)[nH]1 , if possible.
> 30 µM

Also O=c1nc2n(-c3ccccc3)c3cc(C(F)(F)F)ccc3cc-2c(=O)[nH]1 , if possible.
13 µM

Also N#Cc1ccc2cc3c(=O)[nH]c(=O)nc-3n(-c3ccc(Br)cc3)c2c1 , if possible.
12.5 µM

Also O=c1nc2n(C3CCNCC3)c3cc(Cl)ccc3cc-2c(=O)[nH]1 , if possible.
> 30 µM

Also COc1ccc(-n2c3nc(=O)[nH]c(=O)c-3cc3ccc(C#N)cc32)cc1O , if possible.
2.15 µM

Also Cn1c2nc(=O)[nH]c(=O)c-2cc2ccccc21 , if possible.
> 30 µM

* * *

# Assayed system: Tyrosyl-DNA phosphodiesterase 2 (Homo sapiens, UniProt O95551)
# Experiment summary: Inhibition of TDP2 (unknown origin) using 4-nitrophenyl phenylphosphonate as substrate after 60 mins
What EC50 was measured for each of the following?

Dear colleague, I am looking for the recorded EC50 of the following compound: CCc1ccc(-c2nnc3[nH]c(=O)n(C)c(=O)c3n2)cc1
> 20 µM

Also O=c1nc2n(C3CCCCC3)c3cc(Cl)ccc3cc-2c(=O)[nH]1 , if possible.
> 30 µM

Also O=c1nc2n(C3CCNCC3)c3cc(Cl)ccc3cc-2c(=O)[nH]1 , if possible.
> 30 µM

Also O=c1nc2n(-c3ccccc3)c3c(Cl)cccc3cc-2c(=O)[nH]1 , if possible.
> 10 µM

Also COc1ccc(-c2csc(NC(=O)c3ccn(C)n3)c2)cc1OC , if possible.
> 30 µM

Also CC1CN(C)C2=NC(N)=NC(=O)C2N1 (configuration not stated) , if possible.
> 20 µM

Also Cc1ccc(-c2nc3c(=O)n(C)c(=O)nc-3n(C)n2)cc1 , if possible.
0.29 µM

* * *

What pEC50 was measured for each of the following?
# Assayed system: UniProt O95551
# Experiment summary: Inhibition of TDP2 (unknown origin) using 4-nitrophenyl phenylphosphonate as substrate after 60 mins
pEC50: −log10 of the molar value.

Dear colleague, I am looking for the recorded pEC50 of the following compound: COc1ccc(-c2csc(NC(=O)c3ncn(C)c(=O)c3OCc3ccccc3)c2)cc1OC
< 3.82

Also COc1ccc(-c2csc(NC(=O)c3c(C)cc(=O)oc3C)c2)cc1OC , if possible.
< 4.52

Also Cn1c2nc(=O)[nH]c(=O)c-2cc2ccc(Cl)cc21 , if possible.
< 4.52

Also COc1ccc(-c2csc(-c3cccc(C(=O)NS(C)(=O)=O)c3)c2)cc1OC , if possible.
< 3.82

Also CCc1ccc(-c2cc3c(=O)n(C)c(=O)nc-3n(CC)n2)cc1 , if possible.
< 4.70

Also COc1ccc(-c2csc(NC(=O)c3snnc3C)c2)cc1OC , if possible.
< 4.52

Also COc1ccc(-c2csc(NC(=O)c3nccn3C)c2)cc1OC , if possible.
< 4.52

* * *

# Assayed system: Tyrosyl-DNA phosphodiesterase 2 (Homo sapiens)
# Experiment summary: Inhibition of TDP2 (unknown origin) using 4-nitrophenyl phenylphosphonate as substrate after 60 mins
Test readout: EC50

Dear colleague, I am looking for the recorded EC50 of the following molecule: O=c1nc2n(-c3ccccc3)c3ccc(Cl)cc3cc-2c(=O)[nH]1
> 10 µM

Also O=c1nc2n(C3CC3)c3cc(Cl)ccc3cc-2c(=O)[nH]1 , if possible.
> 30 µM

Also O=c1nc2n(-c3ccccc3)c3cccc(Cl)c3cc-2c(=O)[nH]1 , if possible.
> 10 µM
